- System: HCC-2998 colon
- experiment_description: NCI-60 one-dose screen, 48 h (100 = growth as untreated, 0 = no growth, -100 = all killed)
- measurement_parameters: 10 µM unless noted
Compounds without any hit were thinned out: in the full panel of roughly 83,000, 20% have a hit.
measurement_name: growth (%)
Numbers only, in %.

Provide reported growth for each item, in the same order as listed.
1. O=C(O)/C(=C/c1ccc(O)cc1)c1ccccc1
2. COc1ccc(/C=C/C(=O)NCC(C)O)cc1 (stereo not drawn)
3. C[N+](C)(CCCCCC[N+](C)(C)C1c2ccccc2-c2ccccc21)C1c2ccccc2-c2ccccc21

95.8
100
110
